- assayProcedure: In vitro microsomal stability, human liver microsomes
- Assay type: in vitro ADME
- appliedConditions: pH 7.4; intrinsic clearance; human liver microsomes; read-out: Clint @ hLM
readoutName: microsomal CLint at […], 1 µM (µL/min/mg)

// solved cases for microsomal CLint at […], 1 µM follow
molecule: CN(C(=O)c1cc(-c2ccccn2)on1)c1cnn(Cc2ccc(C(F)(F)F)cc2C(F)(F)F)c1
readoutName: microsomal CLint at […], 1 µM
unitAbbreviation: µL/min/mg
readoutNumber: 258
--
molecule: CC(c1ccc(C(F)(F)F)cc1C(F)(F)F)n1cc(NC(=O)c2nnc(-c3cnccn3)s2)cn1 (stereo not shown)
readoutName: microsomal CLint at […], 1 µM
unitAbbreviation: µL/min/mg
readoutNumber: 15
--
molecule: C[C@H](c1ccc(C(F)(F)F)cc1C(F)(F)F)n1cc(NC(=O)c2cn(-c3ccccn3)nn2)cn1
readoutName: microsomal CLint at […], 1 µM
unitAbbreviation: µL/min/mg
readoutNumber: 10.4
--
molecule: C[C@H](c1ccc(C(F)(F)F)cc1C(F)(F)F)n1cc(NC(=O)c2cc(-c3ccccn3)no2)cn1
readoutName: microsomal CLint at […], 1 µM
unitAbbreviation: µL/min/mg
readoutNumber: 24.1
--
molecule: Cc1c(NC(=O)c2cc(-c3ccco3)on2)cnn1Cc1ccc(C(F)(F)F)cc1C(F)(F)F
readoutName: microsomal CLint at […], 1 µM
unitAbbreviation: µL/min/mg
readoutNumber: 18.2

a: O=C(Nc1cnn(Cc2ccc(C(F)(F)F)cc2C(F)(F)F)c1)c1cc(-c2cccs2)on1
b: Cc1ccc(-c2cc(C(=O)Nc3cnn(Cc4ccc(C(F)(F)F)cc4C(F)(F)F)c3)no2)o1
Req: I'm curious, which of these has a smaller microsomal CLint at […], 1 µM number: a or b ? Use the label to indicate which entry you chose.
Resp: a
(a: 43 µL/min/mg, b: 212 µL/min/mg)
